Hey, just so you know, these numbers are from a melting point compilation (Tetko et al.; mined from patent text by program, amines drawn as free bases though some values may be those of a salt).

Recorded measurements of melting point, one per entry

Examples from the recorded data:
The molecule CCOC(=O)c1cn(C2CC2)c2c(Cl)c(F)c(F)c(C)c2c1=O showed melting point equal to 153 to 154 °C

The molecule CCCCn1c(=O)c2c(NC)n[nH]c2n(Cc2ccccc2)c1=O showed melting point equal to 282 to 284 °C

The molecule C=CCN1C(C)(C)CC(Oc2nc(OC3CC(C)(C)N(CC=C)C(C)(C)C3)nc(OC3CC(C)(C)N(CC=C)C(C)(C)C3)n2)CC1(C)C showed melting point equal to 218 to 219 °C

Further cases:
The molecule CC(C)c1c(CCl)c(-c2ccc(F)cc2)nn1-c1ccccc1 showed melting point equal to 124 to 128 °C

The molecule CC(=O)Nc1ccc(CNc2n[nH]c3ncnc(Nc4cccc(Cl)c4)c23)cc1 showed melting point equal to > 260 °C

The molecule COCCN1CCN(c2ccc(NC(=O)c3cnn(-c4ccc(Cl)cc4)c3C)cc2C#N)CC1 showed melting point equal to 207 °C

The molecule CCCCP(=O)(C(=O)c1c(C)cc(C)cc1C)C(=O)c1c(OC)cccc1OC (stereo not given) showed melting point equal to 94 to 96 °C

The molecule Cc1cc(Cl)cc(Cl)c1S(=O)(=O)Nc1nc(CC(=O)N2CCOCC2)c(C)s1 showed melting point equal to 186 to 187 °C

The molecule COc1ccc(Cl)cc1C(=O)NCCc1ccc([N+](=O)[O-])cc1 showed melting point equal to 159 to 160 °C

The molecule CC1(C)OC(C=Cc2ccoc2)=CC1=O showed melting point equal to 79 to 80 °C

The molecule CC(=O)Nc1c(C(=O)c2ncccc2C)[nH]c2cc(Cl)ccc12 showed melting point equal to 173 to 175 °C

The molecule Oc1ncc(-c2ccc(Cl)cc2)cn1 showed melting point equal to 324 to 327 °C

The molecule COc1ccccc1-c1nc(C)c(C(N)=O)s1 showed melting point equal to 191 to 192 °C

The molecule COc1ccc2c(Cc3c(Cl)cncc3Cl)nnc(N(C)C)c2c1 showed melting point equal to 170 to 173 °C

The molecule Cc1cc(C(F)(F)F)cnc1O showed melting point equal to 141 to 143 °C

The molecule CCCc1c(OCc2cccn3c(=O)c(C#N)cnc23)ccc(C(C)=O)c1O showed melting point equal to 233 to 234 °C

The molecule O=C(NCc1ccccc1)n1c(=O)sc2c(Cl)cccc21 showed melting point equal to 106 °C

The molecule CC(C)(C)c1cc(C(=O)c2ccn(Cc3ccccc3)c2)cc(C(C)(C)C)c1O showed melting point equal to 123 to 124 °C

The molecule CCc1nc2nc(C)nn2c(O)c1CCC(C)CC(C)(C)C (stereo not given) showed melting point equal to 183 to 185 °C

The molecule CC(C)=NOCc1nc2c(N)nc3ccccc3c2n1CC(C)(C)O showed melting point equal to 212 to 216 °C
